Values from PubChem BioAssay (NCI)

system: CCRF-CEM leukemia; assay: NCI tumour cell line growth inhibition, 48 h

{"compound": "CCc1nc2cc(/C=C/C(=O)NO)ccc2c(=O)n1CCc1ccc(OC)cc1", "TGI": "> 100 µM"}
{"compound": "COC(=O)CC(C(C(C)=O)C(=O)OCc1ccccc1)N1C(=O)OC(c2ccccc2)C1c1ccccc1 (stereo unspecified)", "TGI": "> 100 µM"}
{"compound": "O=c1[nH]nc(-c2ccc(F)cc2)cc1-c1ccccc1", "TGI": "> 100 µM"}
{"compound": "O=C(Oc1ccccc1)C(Br)C(Br)c1ccccc1 (stereo unspecified)", "TGI": "6.68 µM"}
{"compound": "COC(=O)CCC(=O)N1CC1C (stereo unspecified)", "TGI": "> 100 µM"}
{"compound": "CN(C)N=Nc1ccc2[nH]c(=O)[nH]c2c1", "TGI": "> 100 µM"}
{"compound": "CC(=O)NC1C(OCc2ccccc2)OC(CO)C(O)C1OCC(=O)N[C@@H](C)C(=O)N[C@H](CCC(=O)NCCNc1ccc([N+](=O)[O-])c2[nH]c3ccccc3c(=O)c12)C(N)=O (stereo partly specified)", "TGI": "> 100 µM"}
{"compound": "O=C(/C=C\\n1cnc(-c2cc(C(F)(F)F)cc(C(F)(F)F)c2)n1)N1CC(F)(F)C1", "TGI": "> 18.8 µM"}
{"compound": "COc1ccc(CCN2C(=O)CC34C=CC(CC3C2=O)O4)cc1OC (stereo unspecified)", "TGI": "> 100 µM"}
{"compound": "CCCCCCCCCCOC(=O)c1cc[n+](C)cc1", "TGI": "37.7 µM"}
{"compound": "COc1ccc2c(c1)O/C(=C\\c1cccc(OCC(=O)Nc3nc(C)c(C)s3)c1)C2=O", "TGI": "3.07 µM"}
{"compound": "C1CC2=C(C1)C1=S(S2)SC2=C1CCC2", "TGI": "> 100 µM"}
{"compound": "C=CCn1c(=N)/c(=C(\\N)O)s/c1=C1/SC(=S)N(c2ccc(C)cc2)C1=O", "TGI": "> 100 µM"}
{"compound": "CC/C(Cc1ccccc1)=C(/c1ccc(O)cc1)c1ccc(OCCN2CCCC2)cc1", "TGI": "4.16 µM"}
{"compound": "CCC(=O)C(C(=O)CC)c1c(OC(=O)c2ccccc2)ccc(O)c1C(=O)OC", "TGI": "> 100 µM"}
{"compound": "CCC(C)(O)c1cn(-c2ccc(S(=O)(=O)O)cc2)nn1 (stereo unspecified)", "TGI": "> 100 µM"}
{"compound": "CC12CCC(CC1(Cl)Cl)C2 (stereo unspecified)", "TGI": "> 100 µM"}
{"compound": "CC(C)=C[C@@H]1O[C@H](O)[C@@H]([C@H]2CC[C@@]3(C)[C@@H]4CC[C@H]5C(C)(C)C(=O)CC[C@@]56C[C@@]46CC[C@]23C)[C@@H]1O", "TGI": "24.1 µM"}
{"compound": "Cc1noc(C)c1-c1cnc2c(-c3ccc(C(=O)O)cc3)cn([C@@H](C)c3ccccn3)c2c1", "TGI": "> 100 µM"}
{"compound": "OC12c3ccccc3C1CCCCCC21OCCCO1 (stereo unspecified)", "TGI": "> 100 µM"}
{"compound": "O=C(C1OC1c1cccc([N+](=O)[O-])c1)C12CC3CC(CC(C3)C1)C2 (stereo unspecified)", "TGI": "13.1 µM"}
